Origin of measurements: patent US20080026996A1

EC50 cAMP, Alpha Screen by entry:
# target: T1, human VPAC2 receptor (human, UniProt P41587 24-438)
# T1 sequence (looked up): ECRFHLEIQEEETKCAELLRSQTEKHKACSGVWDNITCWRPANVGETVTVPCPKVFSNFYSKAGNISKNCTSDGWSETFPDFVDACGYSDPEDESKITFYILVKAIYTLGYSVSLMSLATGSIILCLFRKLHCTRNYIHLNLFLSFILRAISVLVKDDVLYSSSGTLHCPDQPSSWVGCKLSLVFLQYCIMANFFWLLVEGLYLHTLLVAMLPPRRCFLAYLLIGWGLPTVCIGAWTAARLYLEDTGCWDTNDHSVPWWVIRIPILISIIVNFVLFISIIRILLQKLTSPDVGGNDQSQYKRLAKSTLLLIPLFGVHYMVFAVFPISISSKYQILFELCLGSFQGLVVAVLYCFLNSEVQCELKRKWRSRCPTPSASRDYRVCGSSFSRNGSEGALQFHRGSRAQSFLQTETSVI
# experiment.description: cell-based or functional assay
Where no end group is shown, it is not given here. [ ]: non-standard residue; d: D form. The star is where a group is joined. Hexanoyl = CCCCCC(=O)*; Aib = CC(C)(N)C(=O)O

These solved cases illustrate the format of a correct answer.
- binder: "Hexanoyl-HSDAVFTDNYTRLRKQVAAKKWLQSIKNKRYGGPSSGAPPPS [P129]"
  measurement: "0.49 nM"
- binder: "Hexanoyl-HSDAVFTDNYTRLRK(Ac)QVAAK(Ac)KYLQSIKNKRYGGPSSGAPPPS [P193]"
  measurement: "0.18 nM"
- binder: "Hexanoyl-HSDAVFTDNYTRLRKQVAAQKYLQSIKNKRYGGPSSGAPPPS [P150]"
  measurement: "0.18 nM"
- binder: "MHSDAVFTDNYTRLRKQVAAKKYLQSIKNKRYGGPSSGAPPPS (N-terminal methionine added (M-), also called VPAC2-P104) [P104]"
  measurement: "0.27 nM"

Consider the record given below.
Record summary for Hexanoyl-HSDAVFTDNYTRL[Aib]KQVAAQKYLQSIKNKRYGGPSSGAPPPS (ends and bridges not checked) [P243] : reported EC50 cAMP, Alpha Screen = 0.28 nM
